Data origin: patent US7754709B2

Molecular target: 17β-hydroxysteroid dehydrogenase type 2 (Homo sapiens, UniProt P37059)
Construct: expressed in transfected cells; host or cells: MCF-7
Sequence (P37059 whole entry): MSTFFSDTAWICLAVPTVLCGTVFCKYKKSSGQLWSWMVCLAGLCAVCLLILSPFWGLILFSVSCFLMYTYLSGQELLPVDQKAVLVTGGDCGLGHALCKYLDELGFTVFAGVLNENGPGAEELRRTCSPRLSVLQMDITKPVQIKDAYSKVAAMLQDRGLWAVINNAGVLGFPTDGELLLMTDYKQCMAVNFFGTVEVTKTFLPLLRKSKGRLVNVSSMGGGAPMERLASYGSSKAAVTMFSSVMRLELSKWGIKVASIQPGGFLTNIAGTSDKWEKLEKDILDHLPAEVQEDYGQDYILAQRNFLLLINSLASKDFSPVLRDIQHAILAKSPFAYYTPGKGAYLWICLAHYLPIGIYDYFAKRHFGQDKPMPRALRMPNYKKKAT
Test: Inhibition of 17β-HSD type 2 in MCF-7 cells stably expressing the isoenzyme (HPLC, tritium labeled estradiol)
Assay type: cell-based
Details: MCF7, 1 μM compound, 2 nM estradiol, read-out: % Inhibition of the 17β-HSD enzyme type 2 (HSD2)
endpoint_label: inhibition at 1 µM (%)

Example compounds with recorded inhibition at 1 µM:
CC(C)(C)C1CCc2c(sc3nc4n(c(=O)c23)CCCCC4)C1 (stereo not shown); 13.1
O=c1c2c3c(sc2nc2n1CCCC2)CCCC3; 26
O=c1c2c3c(sc2nc2n1CCCCCC2)C(O)CCC3 (stereo not shown); 1.7

(a) CCCSC1=C(C=O)CCc2c1sc1nc3n(c(=O)c21)CCC(C(=O)OC)CC3 (stereo not shown)
(b) CC1CCc2c(sc3nc4n(c(=O)c23)CCCCC4)C1 (stereo not shown)
(c) CCOC(=O)C1CCc2nc3sc4c(c3c(=O)n2CC1)CCCC4 (stereo not shown)
(d) O=c1c2c3c(sc2nc2n1CCCCC2)CCC3
stdin: Please rank these compounds by inhibition at 1 µM in descending order. Record the ranking as a list of labels in the requested order.
stdout: d, a, b, c
(d: 15.9%, a: 9.7%, b: 5.3%, c: 3%)

(1) O=c1c2c3c(sc2nc2n1CCCCC2)CCCCC3
(2) O=c1c2c3c(sc2nc2ccccn12)CCCC3
(3) COC(=O)C1CCc2nc3sc4c(c3c(=O)n2CC1)CCC(C=O)=C4OC (stereo not shown)
stdin: Endpoint returns the given compounds ordered by ascending inhibition at 1 µM. Return the labels ranked in the requested order, please.
stdout: 3, 1, 2

====

Target: 17β-hydroxysteroid dehydrogenase type 2 (Homo sapiens)
Construct: expressed in transfected cells; host or cells: MCF-7
Assay: Inhibition of 17β-HSD type 2 in MCF-7 cells stably expressing the isoenzyme (HPLC, tritium labeled estradiol)
Assay type: cell-based
Conditions: MCF7, 10 μM compound, 2 nM estradiol, read-out: % Inhibition of the 17β-HSD enzyme type 2 (HSD2)
endpoint_label: inhibition at 10 µM (%)

Some compounds with recorded inhibition at 10 µM:
O=C1CCCc2c1sc1nc3n(c(=O)c21)CCCC3; 16.3
CCOC(=O)C1CCCn2c1nc1sc3c(c1c2=O)CCCC3=O (centres unmarked); 23.8
CC1CCc2nc3sc4c(c3c(=O)n2CC1)CCCC4=O (centres unmarked); 20.1
O=c1c2c3c(sc2nc2n1CCCCCC2)C(O)CCC3 (centres unmarked); 18.6
CCc1nc2sc3c(c2c(=O)n1C)CCCC3; 29.4

(P) O=C1CCCc2c1sc1nc3n(c(=O)c21)CCC3
(Q) CCCSC1=C(C=O)CCc2c1sc1nc3n(c(=O)c21)CCC(C(=O)O)CC3 (centres unmarked)
stdin: In terms of reported inhibition at 10 µM, does P or Q have the smaller number? Please identify the chosen entry by its label.
stdout: Q
(Q: -0.1%, P: 21.8%)

(1) O=CC1=C([S+]([O-])c2ccccc2)c2sc3nc4n(c(=O)c3c2CC1)CCCCC4 (centres unmarked)
(2) CC(C)(C)C1CCc2c(sc3nc4n(c(=O)c23)CCCCC4)C1 (centres unmarked)
stdin: In the pair 1 and 2 , the larger recorded inhibition at 10 µM belongs to which? Please reply using the label of the selected record.
stdout: 1
